Assayed Target: h-GABAA α2β2γ1 (Homo sapiens, UniProt P47869+Q8N1C3)
Assay Explanation: Two-electrode voltage clamp electrophysiology in Xenopus oocytes, modulation of GABA EC20 current
Assay type: cell-based
Design: host or cells: Xenopus laevis oocytes, RNA micro-injection
Particulars: Table 2; compound at approx. 30-fold its Ki α2β2γ1, GABA EC20, Xenopus oocytes
Provide the recorded Fold increase h-GABA-A α2β2γ1 oocyte @ 30-fold Ki for the entries that follow.
// return a plain number; no unit text

// O=c1[nH]nc2n1-c1ccc(Cl)c(Cl)c1C(c1ncccc1F)=NC2 [Example 59] : Fold increase h-GABA-A α2β2γ1 oocyte @ 30-fold Ki value = 2.15

// Cc1nnc2n1-c1ccc(Cl)c(Cl)c1C(c1ncccc1F)=NC2 [Example 71] : Fold increase h-GABA-A α2β2γ1 oocyte @ 30-fold Ki value = 1.99

// Fc1ccccc1C1=NCc2nnc(-c3cccnn3)n2-c2ccc(C(F)(F)F)c(Cl)c21 [Example 27] : Fold increase h-GABA-A α2β2γ1 oocyte @ 30-fold Ki value = 1.71

// Fc1cccnc1C1=NCc2nnc(-c3ccncn3)n2-c2ccc(Br)c(Cl)c21 [Example 46] : Fold increase h-GABA-A α2β2γ1 oocyte @ 30-fold Ki value = 1.55

// O=c1[nH]nc2n1-c1ccc(Br)c(Cl)c1C(c1ccccc1F)=NC2 [Example 26] : Fold increase h-GABA-A α2β2γ1 oocyte @ 30-fold Ki value = 1.45

// Fc1cccnc1C1=NCc2nnc(-c3cccnn3)n2-c2ccc(C(F)(F)F)c(Cl)c21 [Example 72] : Fold increase h-GABA-A α2β2γ1 oocyte @ 30-fold Ki value = 7.30

// Fc1cccnc1C1=NCc2nnc(C3CC3)n2-c2ccc(Cl)c(Cl)c21 [Example 65] : Fold increase h-GABA-A α2β2γ1 oocyte @ 30-fold Ki value = 2.14

// COCCc1nnc2n1-c1ccc(Cl)c(Cl)c1C(c1c(F)cccc1F)=NC2 [Example 19] : Fold increase h-GABA-A α2β2γ1 oocyte @ 30-fold Ki value = 1.72

// Cc1nnc2n1-c1ccc(I)c(Cl)c1C(c1c(F)cccc1F)=NC2 [Example 41] : Fold increase h-GABA-A α2β2γ1 oocyte @ 30-fold Ki value = 1.70

###

Assayed Target: h-GABAA α2β2γ1 (Homo sapiens, UniProt P47869+Q8N1C3)
Assay Explanation: Two-electrode voltage clamp electrophysiology in Xenopus oocytes, modulation of GABA EC20 current
Type: cell-based
Set-up: host or cells: Xenopus laevis oocytes, RNA micro-injection
Particulars: Table 2; compound at approx. 30-fold its Ki α2β2γ1, GABA EC20, Xenopus oocytes
Property Measured: Fold increase h-GABA-A α2β2γ1 oocyte @ 30-fold Ki

// COc1nnc2n1-c1ccc(Cl)c(Cl)c1C(c1c(F)cccc1F)=NC2 : Fold increase h-GABA-A α2β2γ1 oocyte @ 30-fold Ki value = 1.65

// Fc1cccc(F)c1C1=NCc2nncn2-c2ccc(C(F)F)c(Cl)c21 : Fold increase h-GABA-A α2β2γ1 oocyte @ 30-fold Ki value = 1.61

// Fc1cccnc1C1=NCc2nnc(-c3ccncn3)n2-c2ccc(C(F)(F)F)c(Cl)c21 : Fold increase h-GABA-A α2β2γ1 oocyte @ 30-fold Ki value = 2.36

// Fc1cccc(F)c1C1=NCc2nncn2-c2ccc(Cl)c(Cl)c21 : Fold increase h-GABA-A α2β2γ1 oocyte @ 30-fold Ki value = 1.60

// COc1ccc2c(c1Cl)C(c1c(F)cccc1F)=NCc1nnc(-c3cccnc3)n1-2 : Fold increase h-GABA-A α2β2γ1 oocyte @ 30-fold Ki value = 1.63

// Cc1ccc2c(c1Cl)C(c1c(F)cccc1F)=NCc1nncn1-2 : Fold increase h-GABA-A α2β2γ1 oocyte @ 30-fold Ki value = 1.70

// CO[C@H]1C[C@H](c2nnc3n2-c2ccc(Cl)c(Cl)c2C(c2c(F)cccc2F)=NC3)C1 : Fold increase h-GABA-A α2β2γ1 oocyte @ 30-fold Ki value = 1.58

// COc1ccc2c(c1Cl)C(c1c(F)cccc1F)=NCc1nnc(C3CC3)n1-2 : Fold increase h-GABA-A α2β2γ1 oocyte @ 30-fold Ki value = 1.79

// Fc1cccc(F)c1C1=NCc2nncn2-c2ccc(Br)c(Cl)c21 : Fold increase h-GABA-A α2β2γ1 oocyte @ 30-fold Ki value = 1.56

// Fc1cccnc1C1=NCc2nnc(-c3cccnn3)n2-c2ccc(Br)c(Cl)c21 : Fold increase h-GABA-A α2β2γ1 oocyte @ 30-fold Ki value = 9.28

// O=c1[nH]nc2n1-c1ccc(Cl)c(Cl)c1C(c1c(F)cccc1F)=NC2 : Fold increase h-GABA-A α2β2γ1 oocyte @ 30-fold Ki value = 1.72

// Fc1cccc(F)c1C1=NCc2nnc(-c3ccncn3)n2-c2ccc(Br)c(Br)c21 : Fold increase h-GABA-A α2β2γ1 oocyte @ 30-fold Ki value = 1.23

// Clc1cccnc1C1=NCc2nnc(-c3cccnn3)n2-c2ccc(Br)c(Cl)c21 : Fold increase h-GABA-A α2β2γ1 oocyte @ 30-fold Ki value = 4.14

// Fc1cccc(F)c1C1=NCc2nnc(-c3cccnn3)n2-c2ccc(Br)c(Cl)c21 : Fold increase h-GABA-A α2β2γ1 oocyte @ 30-fold Ki value = 1.94

// Fc1ccccc1C1=NCc2nnc(-c3ccncn3)n2-c2ccc(Cl)c(Cl)c21 : Fold increase h-GABA-A α2β2γ1 oocyte @ 30-fold Ki value = 1.70

// Cc1nnc2n1-c1ccc(C(C)(F)F)c(Cl)c1C(c1c(F)cccc1F)=NC2 : Fold increase h-GABA-A α2β2γ1 oocyte @ 30-fold Ki value = 1.86

// Fc1cccc(F)c1C1=NCc2nnc(-c3cccnn3)n2-c2ccc(Br)c(Br)c21 : Fold increase h-GABA-A α2β2γ1 oocyte @ 30-fold Ki value = 1.97

// Cc1nnc2n1-c1ccc(C(F)F)c(Cl)c1C(c1c(F)cccc1F)=NC2 : Fold increase h-GABA-A α2β2γ1 oocyte @ 30-fold Ki value = 1.84

###

Provide the recorded γ2/γ1 Selectivity Ratio for the entries that follow.
Assayed Target: h-GABAA α1β3γ2 (Homo sapiens, UniProt P14867+P18507)
Construct: expressed in transfected cells; host or cells: HEK293F cells, membranes
Assay Explanation: Radioligand binding assay, [3H]Flumazenil competition, HEK293F membranes
Particulars: Table 1; Ki α1β3γ2 (nM)/Ki α2β2γ1 (nM)
// return a plain number; no unit text

// Fc1ccccc1C1=NCc2nnc(-c3cccnn3)n2-c2ccc(Br)c(Cl)c21 : γ2/γ1 Selectivity Ratio value = 51.2

// Fc1cccnc1C1=NCc2nnc(-c3ccncn3)n2-c2ccc(Br)c(Cl)c21 : γ2/γ1 Selectivity Ratio value = 45.8

// Fc1ccccc1C1=NCc2nnc(-c3ccncn3)n2-c2ccc(Cl)c(Cl)c21 : γ2/γ1 Selectivity Ratio value = 40.1

###

Assayed Target: h-GABAA α1β2γ1 (Homo sapiens, UniProt P14867+Q8N1C3)
Assay Explanation: Radioligand binding assay, [3H]RO7239181 competition, HEK293F membranes
Provide the recorded Ki for the entries that follow.
// note: answer is a bare numeric in nM

// Clc1cccnc1C1=NCc2nnc(-c3ccncn3)n2-c2ccc(Br)c(Cl)c21 : Ki value = 11.5

// Fc1ccccc1C1=NCc2nnc(-c3ccncn3)n2-c2ccc(Cl)c(Cl)c21 : Ki value = 54.1

// Cc1nnc2n1-c1ccc(C(F)F)c(Cl)c1C(c1c(F)cccc1F)=NC2 : Ki value = 68.6

// Cn1cc(-c2nnc3n2-c2ccc(C(F)(F)F)c(Cl)c2C(c2ncccc2F)=NC3)cn1 : Ki value = 275

// Fc1ccccc1C1=NCc2nnc(-c3cccnn3)n2-c2ccc(C(F)(F)F)c(Cl)c21 : Ki value = 288

// Fc1cccc(F)c1C1=NCc2nnc(-c3ccncn3)n2-c2ccc(Br)c(Br)c21 : Ki value = 8.4

// Cn1cc(-c2nnc3n2-c2ccc(Cl)c(Cl)c2C(c2ncccc2F)=NC3)cn1 : Ki value = 131

// Cc1nnc2n1-c1ccc(I)c(Cl)c1C(c1c(F)cccc1F)=NC2 : Ki value = 4.8

###

Assayed Target: h-GABAA α1β3γ2 (Homo sapiens, UniProt P14867+P18507)
Assay Explanation: Radioligand binding assay, [3H]Flumazenil competition, HEK293F membranes
Provide the recorded Ki for the entries that follow.
// note: answer is a bare numeric in nM

// Cc1ccc2c(c1Cl)C(c1c(F)cccc1F)=NCc1nnc(-c3cccnn3)n1-2 [Example 48] : Ki value = 952

// Cc1nnc2n1-c1ccc(Br)c(Cl)c1C(c1ncccc1F)=NC2 [Example 24] : Ki value = 608

// Cc1nnc2n1-c1ccc(Cl)c(Cl)c1C(c1ncccc1F)=NC2 [Example 71] : Ki value = 1080

// Cc1nnc2n1-c1ccc(I)c(Cl)c1C(c1c(F)cccc1F)=NC2 [Example 41] : Ki value = 121

// Cn1cc(-c2nnc3n2-c2ccc(Cl)c(Cl)c2C(c2ncccc2F)=NC3)cn1 [Example 58] : Ki value = 1300

// Cc1nnc2n1-c1ccc(Cl)cc1C(c1ccccc1)=NC2 [Alprazolam, reference compound] : Ki value = 19.6

// Fc1cccnc1C1=NCc2nnc(-c3ccncn3)n2-c2ccc(Br)c(Cl)c21 [Example 46] : Ki value = 1160

// Fc1cccnc1C1=NCc2nnc(-c3cccnn3)n2-c2ccc(Cl)c(Cl)c21 [Example 54] : Ki value = 2070

// Fc1ccccc1C1=NCc2nnc(-c3cccnn3)n2-c2ccc(C(F)(F)F)c(Cl)c21 [Example 27] : Ki value = 4800

// Fc1cccc(F)c1C1=NCc2nnc(C3CCOCC3)n2-c2ccc(Cl)c(Cl)c21 [Example 11] : Ki value = 690

// Fc1cccc(F)c1C1=NCc2nnc(-c3cccnn3)n2-c2ccc(Br)c(Cl)c21 [Example 104] : Ki value = 89.3

// Cc1ncc2n1-c1ccc(Cl)cc1C(c1ccccc1F)=NC2 [Midazolam, reference compound] : Ki value = 5

// Fc1ccccc1C1=NCc2nnc(-c3ccncn3)n2-c2ccc(Cl)c(Cl)c21 [Example 18] : Ki value = 865

// Cc1nnc2n1-c1ccc(C(F)F)c(Cl)c1C(c1c(F)cccc1F)=NC2 [Example 25] : Ki value = 1190

// O=c1[nH]nc2n1-c1ccc(Cl)c(Cl)c1C(c1ncccc1F)=NC2 [Example 59] : Ki value = 577

// COc1ccc2c(c1Cl)C(c1c(F)cccc1F)=NCc1nnc(-c3ccncn3)n1-2 [Example 61] : Ki value = 2140

// Fc1cccc(F)c1C1=NCc2nncn2-c2ccc(C(F)(F)F)c(Cl)c21 [Example 37] : Ki value = 1180

// Fc1cccnc1C1=NCc2nnc(-c3ccncn3)n2-c2ccc(C(F)(F)F)c(Cl)c21 [Example 69] : Ki value = 10600

Where these numbers come from: patent US20230141603A1
